These data points were gathered from patent US10155764B2.

# target.desc: PCAF719-832 bromodomain (Homo sapiens (Human), UniProt Q92831)
# Sequence (Q92831 719-832): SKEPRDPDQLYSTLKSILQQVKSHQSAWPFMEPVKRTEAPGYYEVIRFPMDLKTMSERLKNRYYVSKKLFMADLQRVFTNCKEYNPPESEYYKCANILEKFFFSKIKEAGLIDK
# method.description: PCAF AlphaLisa binding assay
# condition.context: PCAF bromodomain 225 nM, biotinylated small molecule ligand 6 nM
result.type: IC50 (nM)

Example entries begin here.
CN(C)C(CNc1nn(C)c(=O)c2c1CCC2)c1ccccc1 (racemic) | 130
C[C@H](Nc1nn(C)c(=O)c2ccccc12)[C@H](c1ccccc1)N(C)C (single isomer, unassigned) [Example 73A] | 23
COCCN(C)CCNc1nn(C)c(=O)c2ccccc12 | 3500
C[C@H](Nc1nn(C)c(=O)c2ccccc12)[C@H](c1ccc(O)cc1)N(C)C | 42

[a] CC[C@H](Nc1nn(C)c(=O)c2ccccc12)[C@H](c1ccccc1)N(C)C (single isomer, unassigned)
[b] Cc1cccc2c(=O)n(C)nc(N[C@H](C)[C@@H](c3ccccc3)N(C)C)c12 (single isomer, unassigned) [Example 70B]
[c] CC(CN(C)C)Nc1nn(C)c(=O)c2ccccc12 (racemic)
List the 3 entries from lowest IC50 to highest IC50 value. Returns: the labels arranged in the requested order. a, c, b
(a: 41 nM, c: 66 nM, b: 1800 nM)
